- TARGET: Ec Hfq K31W (Escherichia coli, UniProt P0A6X3 1-102, K31W)
- ASSAY PROCEDURE: fluorescence polarization
REPORTED PROPERTY: pKd
As a rule, pKd stands for the negative log10 of the concentration, concentration in M.

Name the reported pKd value associated with the binder AAAAAAAAAAAAAAA (ssRNA) [A15 (fluorescein)]
8.85
